# Measurement Protocol: Iodine content
# Type: physicochemical
# Condition Description: comparison table with IOTROLAN
Attribute Measured: Iodine Content (%)

[[record]]
molecule = "CN(CC(=O)N(C)c1c(I)c(C(=O)NCC(O)CO)c(I)c(C(=O)NCC(O)CO)c1I)C(=O)c1c(I)c(NC(=O)CO)c(I)c(C(=O)NCC(O)CO)c1I (stereo not shown)"
attribute_measured = "Iodine Content (%)"
value = "52,1%"

[[record]]
molecule = "COCC(=O)Nc1c(I)c(C(=O)NCC(O)CO)c(I)c(C(=O)N(C)CC(=O)N(C)c2c(I)c(C(=O)NC(CO)C(O)CO)c(I)c(C(=O)NC(CO)C(O)CO)c2I)c1I (stereo not shown)"
attribute_measured = "Iodine Content (%)"
value = "49,6%"

[[record]]
molecule = "CN(C(=O)CC(=O)N(C)c1c(I)c(C(=O)NC(CO)C(O)CO)c(I)c(C(=O)NC(CO)C(O)CO)c1I)c1c(I)c(C(=O)NC(CO)C(O)CO)c(I)c(C(=O)NC(CO)C(O)CO)c1I (stereo not shown) [IOTROLAN, reference compound]"
attribute_measured = "Iodine Content (%)"
value = "47%"

[[record]]
molecule = "CC(=O)Nc1c(I)c(C(=O)NCC(O)CO)c(I)c(C(=O)N(CC(=O)Nc2c(I)c(C(=O)NCC(O)CO)c(I)c(C(=O)NCC(O)CO)c2I)CC(O)CO)c1I (stereo not shown)"
attribute_measured = "Iodine Content (%)"
value = "51,0%"


----------
# System: Sprague-Dawley rats
# Measurement Protocol: Intravenous toxicity, lethal dose for 50% of the animals
# Assay type: in vivo
# Condition Description: i.v. via the caudal vein at 2.2ml/min, mortality during seven days
Attribute Measured: LD50, rat i.v. (g I/kg)

[[record]]
molecule = "COCC(=O)Nc1c(I)c(C(=O)NCC(O)CO)c(I)c(C(=O)N(C)CC(=O)N(C)c2c(I)c(C(=O)NC(CO)C(O)CO)c(I)c(C(=O)NC(CO)C(O)CO)c2I)c1I (stereo not shown)"
value = "20-25 g I/kg"

[[record]]
molecule = "CN(C(=O)CC(=O)N(C)c1c(I)c(C(=O)NC(CO)C(O)CO)c(I)c(C(=O)NC(CO)C(O)CO)c1I)c1c(I)c(C(=O)NC(CO)C(O)CO)c(I)c(C(=O)NC(CO)C(O)CO)c1I (stereo not shown) [IOTROLAN, reference compound]"
value = "25-28 g I/kg"

[[record]]
molecule = "CC(=O)Nc1c(I)c(C(=O)NCC(O)CO)c(I)c(C(=O)N(CC(=O)Nc2c(I)c(C(=O)NCC(O)CO)c(I)c(C(=O)NCC(O)CO)c2I)CC(O)CO)c1I (stereo not shown)"
value = "25-27 g I/kg"

[[record]]
molecule = "CN(CC(=O)N(C)c1c(I)c(C(=O)NCC(O)CO)c(I)c(C(=O)NCC(O)CO)c1I)C(=O)c1c(I)c(NC(=O)CO)c(I)c(C(=O)NCC(O)CO)c1I (stereo not shown)"
value = "23 g I/kg"


----------
# Measurement Protocol: Viscosity of aqueous solutions
# Format: physicochemical
# Condition Description: 30°C, 300mg I/ml
Attribute Measured: Viscosity mPa s (30°C) at 300mg I/ml

[[record]]
compound = "O=C(NCCO)c1c(I)c(C(=O)NCCO)c(I)c(N(CCO)C(=O)CN(CCO)C(=O)c2c(I)c(C(=O)NCC(O)CO)c(I)c(N(CCO)C(=O)CO)c2I)c1I (stereo not shown) [EXAMPLE 16]"
value = "7,6 mPa s"

[[record]]
compound = "COCC(=O)Nc1c(I)c(C(=O)NCC(O)CO)c(I)c(C(=O)N(C)CC(=O)N(C)c2c(I)c(C(=O)N(C)CC(O)CO)c(I)c(C(=O)N(C)CC(O)CO)c2I)c1I (stereo not shown) [EXAMPLE 25]"
value = "8,0 mPa s"

[[record]]
compound = "COCC(=O)Nc1c(I)c(C(=O)N(C)CC(=O)N(C)c2c(I)c(C(=O)NCC(O)CO)c(I)c(C(=O)NCC(O)CO)c2I)c(I)c(C(=O)N(CCO)CC(O)CO)c1I (stereo not shown) [EXAMPLE 41]"
value = "9,0 mPa s"

[[record]]
compound = "CN(CC(O)CO)C(=O)c1c(I)c(C(=O)N(C)CC(O)CO)c(I)c(N(C)C(=O)CNC(=O)c2c(I)c(NC(=O)CO)c(I)c(C(=O)NCC(O)CO)c2I)c1I (stereo not shown) [EXAMPLE 26]"
value = "7,7 mPa s"

[[record]]
compound = "COCC(=O)Nc1c(I)c(C(=O)NCC(O)CO)c(I)c(C(=O)N(CC(=O)Nc2c(I)c(C(=O)NCC(O)CO)c(I)c(C(=O)NCC(O)CO)c2I)CC(O)CO)c1I (stereo not shown) [EXAMPLE 15]"
value = "8,6 mPa s"

[[record]]
compound = "CN(CC(=O)N(C)c1c(I)c(C(=O)NCC(O)CO)c(I)c(C(=O)NCC(O)CO)c1I)C(=O)c1c(I)c(NC(=O)CO)c(I)c(C(=O)NCC(O)CO)c1I (stereo not shown) [EXAMPLE 11]"
value = "6,9 mPa s"

[[record]]
compound = "COCC(=O)Nc1c(I)c(C(=O)NC(CO)C(O)CO)c(I)c(C(=O)N(C)CC(=O)N(C)c2c(I)c(C(=O)NC(CO)C(O)CO)c(I)c(C(=O)NC(CO)C(O)CO)c2I)c1I (stereo not shown) [EXAMPLE 10]"
value = "8,9 mPa s"

[[record]]
compound = "COCC(=O)Nc1c(I)c(C(=O)NCC(=O)Nc2c(I)c(C(=O)N(C)CC(O)CO)c(I)c(C(=O)N(C)CC(O)CO)c2I)c(I)c(C(=O)NCC(O)CO)c1I (stereo not shown) [EXAMPLE 1]"
value = "7,2 mPa s"

[[record]]
compound = "CC(=O)Nc1c(I)c(C(=O)NCC(O)CO)c(I)c(C(=O)N(CC(=O)N(C)c2c(I)c(C(=O)NCC(O)CO)c(I)c(C(=O)NCC(O)CO)c2I)CC(O)CO)c1I (stereo not shown) [EXAMPLE 23]"
value = "7,9 mPa s"

[[record]]
compound = "COCC(=O)Nc1c(I)c(C(=O)NCC(O)CO)c(I)c(C(=O)N(C)CC(=O)N(C)c2c(I)c(C(=O)NCC(O)CO)c(I)c(C(=O)NCC(O)CO)c2I)c1I (stereo not shown) [EXAMPLE 12]"
value = "8,6 mPa s"

